Reported Ki, Furin (Homo sapiens).

>  <Substance>
H-TPRHRRRKKRG-OH

>  <Ki>
> 0.1 µM

$$$$
>  <Substance>
H-TPAAARRKKR-OH

>  <Ki>
> 0.1 µM

$$$$
>  <Substance>
H-TPRERRAKKR-OH

>  <Ki>
> 0.1 µM

$$$$
>  <Substance>
H-TPRERRAAKRV-OH

>  <Ki>
> 0.1 µM

$$$$
>  <Substance>
H-TPQRARRRKKRH-OH

>  <Ki>
> 0.1 µM

$$$$
>  <Substance>
H-AAAERRRKKR-OH

>  <Ki>
> 0.1 µM

$$$$
>  <Substance>
H-AAAERRRKKRG-OH

>  <Ki>
> 0.1 µM

$$$$
>  <Substance>
H-TPQRARRRKKRI-OH

>  <Ki>
> 0.1 µM

$$$$
>  <Substance>
H-TPRDRRRKKRG-NH2

>  <Ki>
> 0.1 µM

$$$$
>  <Substance>
H-TPQRARRRKKRC-OH

>  <Ki>
> 0.1 µM

$$$$
>  <Substance>
H-TPQRARRRKKRM-OH

>  <Ki>
0.058 µM

$$$$
>  <Substance>
H-TPRAARRKKRG-OH

>  <Ki>
> 0.1 µM

$$$$
>  <Substance>
H-TPRERRRKKAG-NH2

>  <Ki>
> 0.1 µM

$$$$
>  <Substance>
H-TPRARRRKKRE-OH

>  <Ki>
> 0.1 µM

$$$$
>  <Substance>
H-TPRERRRKKRV-OH

>  <Ki>
> 0.1 µM

$$$$
>  <Substance>
H-TPRVRRRKKRG-NH2

>  <Ki>
> 0.1 µM

$$$$
>  <Substance>
H-AARERRRKKRG-OH

>  <Ki>
> 0.1 µM

$$$$
>  <Substance>
H-GGGTPRARRRKKRT-OH

>  <Ki>
0.039 µM

$$$$
>  <Substance>
H-TPRIRRRKKRG-NH2

>  <Ki>
> 0.1 µM

$$$$
>  <Substance>
H-TPRERAAKKR-OH

>  <Ki>
> 0.1 µM

$$$$
>  <Substance>
H-TPQRARRRKKRT-OH

>  <Ki>
0.033 µM

$$$$
>  <Substance>
H-TPQRARRRKKRP-OH

>  <Ki>
> 0.1 µM

$$$$
>  <Substance>
H-TPQRARRRKKRL-OH

>  <Ki>
> 0.1 µM

$$$$
>  <Substance>
H-TPRARRRKKRW-OH

>  <Ki>
0.059 µM

$$$$
>  <Substance>
H-TPRERAAKKRV-OH

>  <Ki>
> 0.1 µM

$$$$
>  <Substance>
H-TPREARRKKRG-NH2

>  <Ki>
> 0.1 µM

$$$$
>  <Substance>
H-TPQRDRRRKKRG-OH

>  <Ki>
> 0.1 µM

$$$$
>  <Substance>
H-GGGTPQRARRRKKRW-OH

>  <Ki>
0.067 µM

$$$$
>  <Substance>
H-TPRARRRKKRK-OH

>  <Ki>
> 0.1 µM

$$$$

====

Target: Furin (Homo sapiens, UniProt P09958)
Sequence (P09958 whole entry): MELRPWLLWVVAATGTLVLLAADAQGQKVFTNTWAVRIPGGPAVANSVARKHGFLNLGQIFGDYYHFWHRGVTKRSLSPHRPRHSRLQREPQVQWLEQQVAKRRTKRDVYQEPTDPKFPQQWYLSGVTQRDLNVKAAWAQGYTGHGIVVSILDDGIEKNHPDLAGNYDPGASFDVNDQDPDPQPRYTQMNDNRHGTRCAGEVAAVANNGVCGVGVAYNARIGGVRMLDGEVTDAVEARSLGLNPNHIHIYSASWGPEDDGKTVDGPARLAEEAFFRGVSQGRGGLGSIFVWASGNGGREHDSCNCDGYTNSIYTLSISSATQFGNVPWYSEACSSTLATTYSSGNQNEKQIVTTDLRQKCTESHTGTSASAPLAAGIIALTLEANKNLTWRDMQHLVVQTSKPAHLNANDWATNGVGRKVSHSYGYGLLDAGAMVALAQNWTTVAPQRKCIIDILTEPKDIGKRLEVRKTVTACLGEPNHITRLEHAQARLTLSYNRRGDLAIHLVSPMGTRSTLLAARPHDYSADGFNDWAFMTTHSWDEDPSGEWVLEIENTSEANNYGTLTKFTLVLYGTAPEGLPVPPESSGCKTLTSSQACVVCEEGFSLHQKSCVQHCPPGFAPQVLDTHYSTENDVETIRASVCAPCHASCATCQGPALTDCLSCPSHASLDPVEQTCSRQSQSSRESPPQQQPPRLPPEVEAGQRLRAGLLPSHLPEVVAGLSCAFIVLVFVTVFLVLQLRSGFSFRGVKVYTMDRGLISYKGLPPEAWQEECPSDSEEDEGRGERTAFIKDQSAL
pKi: −log10 of the molar value.

>  <Substance>
H-TPQRARRRKKRY-OH

>  <pKi>
7.33

$$$$
>  <Substance>
H-GAGAGATPRARRRKKRY-OH

>  <pKi>
7.24

$$$$
>  <Substance>
H-TPRERRRKARG-NH2

>  <pKi>
< 7.00

$$$$
>  <Substance>
H-GGGGGGTPRARRRKKRF-OH

>  <pKi>
7.35

$$$$
>  <Substance>
H-TPRERARKKRG-OH

>  <pKi>
< 7.00

$$$$
>  <Substance>
H-TARERRRKKRV-OH

>  <pKi>
< 7.00

$$$$
>  <Substance>
H-TPRLRRRKKRG-NH2

>  <pKi>
< 7.00

$$$$
>  <Substance>
H-TPQRARRRKKRN-OH

>  <pKi>
< 7.00

$$$$
>  <Substance>
H-TPRERRRKARG-OH

>  <pKi>
< 7.00

$$$$
>  <Substance>
H-TPRERAAKKRG-OH

>  <pKi>
< 7.00

$$$$
>  <Substance>
H-TPRARRRKKRG-NH2

>  <pKi>
7.24

$$$$
>  <Substance>
H-TPRARRRKKRA-NH2

>  <pKi>
< 7.00

$$$$
>  <Substance>
H-TPRARRRKKRE-NH2

>  <pKi>
< 7.00

$$$$
>  <Substance>
H-TPRERRRKKR-OH

>  <pKi>
< 7.00

$$$$
>  <Substance>
H-TPAARRRKKRV-OH

>  <pKi>
< 7.00

$$$$
>  <Substance>
H-TPRAARRKKR-OH

>  <pKi>
< 7.00

$$$$
>  <Substance>
H-TPREAARKKR-OH

>  <pKi>
< 7.00

$$$$
>  <Substance>
H-APRERRRKKRG-OH

>  <pKi>
< 7.00

$$$$
>  <Substance>
H-TPRCRRRKKRG-NH2

>  <pKi>
< 7.00

$$$$
>  <Substance>
H-TPAARRRKKRG-OH

>  <pKi>
< 7.00

$$$$
>  <Substance>
H-TPRWRRRKKRG-NH2

>  <pKi>
< 7.00

$$$$
>  <Substance>
H-TPRQRRRKKRG-NH2

>  <pKi>
< 7.00

$$$$
>  <Substance>
H-TAAERRRKKRG-OH

>  <pKi>
< 7.00

$$$$
>  <Substance>
H-TPRERRRKKAG-OH

>  <pKi>
< 7.00

$$$$
>  <Substance>
H-TPRRRRRKKRG-OH

>  <pKi>
< 7.00

$$$$
>  <Substance>
H-TPQRARRRKKRV-OH

>  <pKi>
7.32

$$$$
>  <Substance>
H-TPRARRRKKRT-OH

>  <pKi>
7.64

$$$$
>  <Substance>
H-APRERRRKKR-OH

>  <pKi>
< 7.00

$$$$
>  <Substance>
H-TPRMRRRKKRG-OH

>  <pKi>
< 7.00

$$$$
>  <Substance>
H-TPRARRRKKRR-NH2

>  <pKi>
< 7.00

$$$$
>  <Substance>
H-TPQRARRRKKRW-OH

>  <pKi>
7.47

$$$$
>  <Substance>
H-TPQRVRRRKKRG-OH

>  <pKi>
< 7.00

$$$$
>  <Substance>
H-TPRERRRKARV-OH

>  <pKi>
< 7.00

$$$$
>  <Substance>
H-TPRARRRKKRN-NH2

>  <pKi>
7.35

$$$$
>  <Substance>
H-TPRERARKKRG-NH2

>  <pKi>
< 7.00

$$$$
>  <Substance>
H-AARERRRKKRV-OH

>  <pKi>
< 7.00

$$$$
>  <Substance>
H-TPRVRRRKKRG-OH

>  <pKi>
< 7.00

$$$$
>  <Substance>
H-TPRARRRKKRI-OH

>  <pKi>
7.52

$$$$
>  <Substance>
H-TPRNRRRKKRG-OH

>  <pKi>
< 7.00

$$$$
>  <Substance>
H-TAAERRRKKR-OH

>  <pKi>
< 7.00

$$$$
>  <Substance>
H-TPRERRRAARV-OH

>  <pKi>
< 7.00

$$$$
>  <Substance>
H-TPAERRRKKRG-NH2

>  <pKi>
< 7.00

$$$$
>  <Substance>
H-TPREARRKKRG-OH

>  <pKi>
< 7.00

$$$$
>  <Substance>
H-TPRTRRRKKRG-NH2

>  <pKi>
< 7.00

$$$$
>  <Substance>
H-TPRPRRRKKRG-OH

>  <pKi>
< 7.00

$$$$
>  <Substance>
H-TPRERRRAKRG-NH2

>  <pKi>
< 7.00

$$$$
>  <Substance>
H-TPRERRRKAR-OH

>  <pKi>
< 7.00

$$$$
>  <Substance>
H-TPRARRRKKRD-OH

>  <pKi>
7.25

$$$$
>  <Substance>
H-AAAERRRKKRV-OH

>  <pKi>
< 7.00

$$$$
>  <Substance>
H-TPRARRRKKRG-OH

>  <pKi>
7.24

$$$$
>  <Substance>
H-TPQRQRRRKKRG-OH

>  <pKi>
< 7.00

$$$$
>  <Substance>
H-GAGAGATPQRARRRKKRW-OH

>  <pKi>
6.90

$$$$
>  <Substance>
H-TPRAARRKKRV-OH

>  <pKi>
< 7.00

$$$$
>  <Substance>
H-TPREAAAKKR-OH

>  <pKi>
< 7.00

$$$$
>  <Substance>
H-TPRARRRKKRH-NH2

>  <pKi>
< 7.00

$$$$
>  <Substance>
H-TPRERRAAKR-OH

>  <pKi>
< 7.00

$$$$
>  <Substance>
H-TPRARRRKKRP-NH2

>  <pKi>
< 7.00

$$$$
>  <Substance>
H-TPREAARKKRG-OH

>  <pKi>
< 7.00

$$$$
>  <Substance>
H-TPAAARRKKRV-OH

>  <pKi>
< 7.00

$$$$
>  <Substance>
H-TPRERRRKAAV-OH

>  <pKi>
< 7.00

$$$$
>  <Substance>
H-TPRERARKKR-OH

>  <pKi>
< 7.00

$$$$
>  <Substance>
H-TPRSRRRKKRG-OH

>  <pKi>
< 7.00

$$$$
>  <Substance>
H-TPRARRRKKRF-NH2

>  <pKi>
7.42

$$$$
